The measured values listed here are drawn from ChEMBL document CHEMBL1137833.

- study_target: Estrogen receptor (Homo sapiens, UniProt Q92731+P03372)
- assay_info: Inhibition of 10e-9 M E2 stimulated transcriptional activation in ER+MCF-7/2a breast cancer cells
- Type: functional, cell-based
- conditions: cancer cell lines
Lab note: anything with IC50 below 200 nM is marked true; values at 200 nM or higher are marked false.

# count of solved cases: 3
smiles_text	category_label
CCCCCSCCCCCCCCCC/C(=C(/CC)c1ccc(O)cc1)c1ccc(O)cc1	false
CCCCCSCCCCCCCCCC/C(=C(/CC)c1ccc(O)cc1)c1cccc(O)c1	false
CCCCCS(=O)(=O)CCCCCCCCCC/C(=C(/CC)c1cccc(O)c1)c1ccc(O)cc1	true

Now consider the entry below.
In: Does this molecule meet the criterion IC50 < 200 nM? CCCCCS(=O)(=O)CCCCCCCCCC/C(=C(/CC)c1ccc(O)cc1)c1ccc(O)cc1
Out: true
